- Measured target: human ether-à-go-go-related gene (hERG) potassium channel (human);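 note: peak tail current of the secondary pulse compared with the same well before compound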
- Sequence (Q12809 whole entry, looked up): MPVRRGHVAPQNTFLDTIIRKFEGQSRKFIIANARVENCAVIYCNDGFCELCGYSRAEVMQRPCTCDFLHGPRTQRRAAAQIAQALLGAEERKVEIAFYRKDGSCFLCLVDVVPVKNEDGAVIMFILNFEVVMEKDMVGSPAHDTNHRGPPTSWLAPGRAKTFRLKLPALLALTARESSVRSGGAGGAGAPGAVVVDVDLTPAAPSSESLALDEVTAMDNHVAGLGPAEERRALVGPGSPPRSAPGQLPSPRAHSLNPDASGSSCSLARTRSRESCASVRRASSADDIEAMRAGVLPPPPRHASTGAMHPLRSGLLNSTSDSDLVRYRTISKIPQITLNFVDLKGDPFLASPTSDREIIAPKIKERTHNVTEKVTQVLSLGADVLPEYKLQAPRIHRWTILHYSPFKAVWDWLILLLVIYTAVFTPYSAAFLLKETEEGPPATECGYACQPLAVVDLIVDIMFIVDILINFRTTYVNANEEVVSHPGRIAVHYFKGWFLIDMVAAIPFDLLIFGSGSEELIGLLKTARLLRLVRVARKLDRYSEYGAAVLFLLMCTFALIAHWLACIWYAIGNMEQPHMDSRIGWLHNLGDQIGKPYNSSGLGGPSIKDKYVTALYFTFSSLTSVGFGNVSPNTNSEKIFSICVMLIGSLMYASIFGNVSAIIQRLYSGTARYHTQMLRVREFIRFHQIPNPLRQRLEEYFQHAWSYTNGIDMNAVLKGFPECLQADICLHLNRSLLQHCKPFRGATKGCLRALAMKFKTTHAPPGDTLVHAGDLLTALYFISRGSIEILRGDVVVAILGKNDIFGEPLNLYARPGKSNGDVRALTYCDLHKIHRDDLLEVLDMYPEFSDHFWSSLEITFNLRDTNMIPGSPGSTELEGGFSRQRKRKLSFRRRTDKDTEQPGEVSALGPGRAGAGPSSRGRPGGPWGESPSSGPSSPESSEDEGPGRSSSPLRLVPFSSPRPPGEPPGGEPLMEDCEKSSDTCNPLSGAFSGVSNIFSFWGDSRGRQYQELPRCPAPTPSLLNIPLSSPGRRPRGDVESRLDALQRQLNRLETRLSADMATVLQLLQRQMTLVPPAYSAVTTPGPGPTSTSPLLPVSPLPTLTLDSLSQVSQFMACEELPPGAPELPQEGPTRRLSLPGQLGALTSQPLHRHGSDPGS
- Measurement notes: primary screen, population patch clamp on CHO cells stably expressing hERG; higher = less effect of the substance
The campaign covered roughly 310,000 compounds. About 14,000 (4.5%) showed an effect of 50% or more. The effect is printed as a negative number. Shown is part of a subset that was picked to be rich in strong results.
So I've got a bunch of compounds here, and I need their hERG current change (%, negative = inhibition) at 10uM values.
Write the answer as a number in %, unit excluded.

Exercise: Dear colleague, I am looking for the recorded hERG current change (%, negative = inhibition) at 10uM of the following compound: Cc1ccccc1C(=O)Nc1cccc(-c2ccc3nncn3n2)c1
Key: -2.94

Exercise: Dear colleague, I am looking for the recorded hERG current change (%, negative = inhibition) at 10uM of the following compound: Cc1ccc(NC(=S)NC2CCCC2)cc1
Key: 4.64

Exercise: Dear colleague, I am looking for the recorded hERG current change (%, negative = inhibition) at 10uM of the following compound: Cc1ccc(NC(=S)NCCN(C2CCCCC2)C2CCCC2)cc1C
Key: -68.1

Exercise: Dear colleague, I am looking for the recorded hERG current change (%, negative = inhibition) at 10uM of the following compound: Cc1ccc(NC(=S)NCC2CCCO2)cc1C (stereo not drawn)
Key: -1.97

Exercise: Dear colleague, I am looking for the recorded hERG current change (%, negative = inhibition) at 10uM of the following compound: Cc1ccc(NC(=S)NC2CCCC2)cc1C
Key: 14.8

Exercise: Dear colleague, I am looking for the recorded hERG current change (%, negative = inhibition) at 10uM of the following compound: COCCC(=O)N1CCCC(C(=O)c2ccc(Oc3ccccc3)cc2)C1 (stereo not drawn)
Key: -79.3
